Quick reference: glycan array binding signal (z-score) of the listed items.
# target_under_test: GlcNAc(b1-3)Man
# experiment: glycan array binding signal (z-score within array); higher = stronger binding
# test_settings: glycan notation: IUPAC condensed, linker removed
About 410 targets per protein were measured; listed, in parts, are those with the strongest signals and a random draw of the rest.
Give your answer as a number; write no unit.

NKp30 (Homo sapiens), O14931 (protein) MAWMLLLILIMVHPGSCALWVSQPPEIRTLEGSSAFLPCSFNASQGRLAIGSVTWFRDEVVPGKEVRNGTPERFGRLAPLASSRFLHDHQAELHIRDVRGHDASIYVCRVEVLGLGVGTGNGTRLVVRKEHPQLGAGTHADPEAPEAEGAPSVFLFPPKPKDTLMISRTPEVTCVVVDVSHEDPEVKFNWYVDGVEVHNAKTPREEQYNSTYRVVSVLTVLHQDWLNGKEYKCKVSNKALPAPIEKTISKAKGQPREPQVYTLPPSRDELTKNQVSLTCLVKGFYPSDIAVEWESNGQPENNYKTTPPVLDSDGSFFLYSKLTVDKSRWQQGNVFSCSVMHEALHNHYTQKSLSLSPGK
-0.416

We next turn to a different binder, shown below.
**Query** Given Sp8391B-bot-388-20-388 (Bacteroides ovatus) (protein) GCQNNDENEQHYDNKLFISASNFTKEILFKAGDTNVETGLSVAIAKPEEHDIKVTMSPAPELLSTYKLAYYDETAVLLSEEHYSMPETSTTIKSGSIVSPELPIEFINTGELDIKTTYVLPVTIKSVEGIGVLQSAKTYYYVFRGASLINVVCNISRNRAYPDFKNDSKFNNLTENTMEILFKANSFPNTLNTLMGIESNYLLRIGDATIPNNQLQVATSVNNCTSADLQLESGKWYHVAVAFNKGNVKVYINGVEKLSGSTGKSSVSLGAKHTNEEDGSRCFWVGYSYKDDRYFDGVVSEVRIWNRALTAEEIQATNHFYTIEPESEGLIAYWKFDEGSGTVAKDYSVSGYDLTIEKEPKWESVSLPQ , respond with its glycan array binding signal (z-score).
**Result** 0.083

FYI, the data here is from the supplement of paper PMC8728848.
